Attribution: the supplement of paper PMC10724198

# Test system: Saccharomyces cerevisiae
# test-method-notes: protein stability index of tFT-peptide fusion (C-terminal peptide) (PSI (0-1 scale)); higher = more stable (slower turnover)
# condition-label: genetic background: wild type; temperature: 30 C
Attribute: protein stability index
Number, no unit, nothing else.

INPUT: Tell me the measured protein stability index of VALVCFAAGWLW , please.
OUTPUT: 0.507

INPUT: And RPVRLLPCVCHF ?
OUTPUT: 0.679

INPUT: And VFHLATSVRRRY ?
OUTPUT: 0.672

INPUT: And QGVPNEPLWARP ?
OUTPUT: 0.72

* * *

# System: Saccharomyces cerevisiae
# test-method-notes: protein stability index of tFT-peptide fusion (C-terminal peptide) (PSI (0-1 scale)); higher = more stable (slower turnover)
# condition-label: genetic background: das1 deletion; temperature: 30 C
Attribute: protein stability index
Number, no unit, nothing else.

INPUT: Tell me the measured protein stability index of IYSVTKKRNTRI [RSF2 C-terminal 12 aa] , please.
OUTPUT: 0.725

INPUT: And KTGKKNKVAKKN [SRP14 C-terminal 12 aa] ?
OUTPUT: 0.682

INPUT: And IKTIVEAMDVLS [PCC1 C-terminal 12 aa] ?
OUTPUT: 0.67

INPUT: And KKKQNDGKSLRS [DBP8 C-terminal 12 aa] ?
OUTPUT: 0.687

INPUT: And SYKWLKRETSPL [FRA1 C-terminal 12 aa] ?
OUTPUT: 0.712

INPUT: And WQTLVMILQESG [NPL4 C-terminal 12 aa] ?
OUTPUT: 0.392

INPUT: And VHDDSRCYTHFY [BNI4 C-terminal 12 aa] ?
OUTPUT: 0.731

INPUT: And SKFGSIFKKVFG [YGR237C C-terminal 12 aa] ?
OUTPUT: 0.689

INPUT: And ACDNSGLIGIFQ [VPS15 C-terminal 12 aa] ?
OUTPUT: 0.723

INPUT: And PKGGNYVSRYQR [THO2 C-terminal 12 aa] ?
OUTPUT: 0.695

INPUT: And SQVLPESERRLD [ATG22 C-terminal 12 aa] ?
OUTPUT: 0.675

INPUT: And ERNKKSRPPIYK [ARL3 C-terminal 12 aa] ?
OUTPUT: 0.734

INPUT: And TKCEEEIKNLSK [YME2 C-terminal 12 aa] ?
OUTPUT: 0.698

INPUT: And AELILETSYDKF [MRX1 C-terminal 12 aa] ?
OUTPUT: 0.729

INPUT: And NVPVSNGTTAAQ [UTP23 C-terminal 12 aa] ?
OUTPUT: 0.695

INPUT: And TVLKAAKKEGLN [MGR3 C-terminal 12 aa] ?
OUTPUT: 0.672

INPUT: And CICSGMLFEMDG [SIN4 C-terminal 12 aa] ?
OUTPUT: 0.696

INPUT: And AFRSLQKSKKKK [PKH3 C-terminal 12 aa] ?
OUTPUT: 0.717

INPUT: And IQINKGDNIFKN [YTM1 C-terminal 12 aa] ?
OUTPUT: 0.688

INPUT: And EHRNIEWEKKTA [POL4 C-terminal 12 aa] ?
OUTPUT: 0.7

INPUT: And YLEHQQIHGRVV [YHR145C C-terminal 12 aa] ?
OUTPUT: 0.679

INPUT: And IRIVITINKVTL [IRC9 C-terminal 12 aa] ?
OUTPUT: 0.348

INPUT: And KRAENNAQKKTN [ERG25 C-terminal 12 aa] ?
OUTPUT: 0.689

INPUT: And QQYFQEPQQGQY [MCM1 C-terminal 12 aa] ?
OUTPUT: 0.676
